# TARGET: UniProtKB Q923Y8
# EXPERIMENT SUMMARY: Radioligand binding assay on mouse TAAR1
# CONDITIONS USED: mouse TAAR1, membranes of stably transfected HEK-293 cells; first value of cell mouse/rat
Counter-ions that a name gives are not always drawn.
PARAMETER: Ki (µM)
# value in µM; strip the unit string

Field: example entries. Status: answers known.
- COMPOUND: "CC(C)(C)c1cnc(Nc2ccc(CC[C@H]3COC(N)=N3)cc2)nc1"
  Ki, µM: 0.0005
- COMPOUND: "NC1=N[C@@H](CCc2ccc(NC(c3ccc(C(F)(F)F)cc3)C(F)(F)F)cc2)CO1 (some centres unmarked)"
  Ki, µM: 0.0412
- COMPOUND: "NC1=N[C@@H](CCc2ccc(Nc3ccc(Cl)cn3)cc2)CO1"
  Ki, µM: 0.0005
- COMPOUND: "NC1=N[C@@H](CCc2ccc(Nc3ccncn3)cc2)CO1 [Example 35, hydrochloride]"
  Ki, µM: 0.0551

Okay, now this compound:
Looking up "NC1=N[C@@H](CCc2ccc(Nc3ccccc3)cc2)CO1" , I found its Ki recorded as 0.0013

----------
# TARGET: rat TAAR1 (Rattus norvegicus (Rat))
# EXPERIMENT SUMMARY: Radioligand binding assay on rat TAAR1
# CONDITIONS USED: rat TAAR1, membranes of stably transfected HEK-293 cells; second value of cell mouse/rat
PARAMETER: Ki (µM)
# value in µM; strip the unit string

- COMPOUND: "COc1cccc(C(Nc2ccc(CC[C@H]3COC(N)=N3)cc2)C(F)(F)F)n1 (some centres unmarked)"
  TARGET: "rat TAAR1 (Rattus norvegicus (Rat))"
  VALUE UNIT: "µM"
  DATA VALUE: 0.0205
- COMPOUND: "CC(C)c1cnc(Nc2ccc(CC[C@H]3COC(N)=N3)cc2)nc1"
  TARGET: "rat TAAR1 (Rattus norvegicus (Rat))"
  VALUE UNIT: "µM"
  DATA VALUE: 0.0002
- COMPOUND: "NC1=N[C@@H](CCc2ccc(Nc3cc(C(F)(F)F)cc(Cl)n3)cc2)CO1"
  TARGET: "rat TAAR1 (Rattus norvegicus (Rat))"
  VALUE UNIT: "µM"
  DATA VALUE: 0.0016
- COMPOUND: "NC1=N[C@@H](CCc2ccc(Nc3cccc(Cl)n3)cc2)CO1"
  TARGET: "rat TAAR1 (Rattus norvegicus (Rat))"
  VALUE UNIT: "µM"
  DATA VALUE: 0.0005

Okay, now this compound:
Looking up "NC1=N[C@@H](CCc2ccc(Nc3ncc(C4CCC4)cn3)cc2)CO1" , I found its Ki recorded as 0.0002

----------
# TARGET: UniProt:Q923Y8
# EXPERIMENT SUMMARY: Radioligand binding assay on mouse TAAR1
# CONDITIONS USED: mouse TAAR1, membranes of stably transfected HEK-293 cells; first value of cell mouse/rat
PARAMETER: Ki (µM)
# value in µM; strip the unit string

Field: example entries. Status: answers known.
- MOLECULE: "COc1ccnc(Nc2ccc(CC[C@H]3COC(N)=N3)cc2)n1"
  Ki / µM: 0.0047
- MOLECULE: "NC1=N[C@@H](CCc2ccc(NC(c3cccc(F)c3)C(F)(F)F)cc2)CO1 (stereo partly shown)"
  Ki / µM: 0.023
- MOLECULE: "N#Cc1cnc(Nc2ccc(CC[C@H]3COC(N)=N3)cc2)nc1"
  Ki / µM: 0.008
- MOLECULE: "NC1=N[C@@H](CCc2ccc(Nc3ccc(C(F)(F)F)cc3)cc2)CO1"
  Ki / µM: 0.0002
- MOLECULE: "NC1=N[C@@H](CCc2ccc(Nc3cc(C(F)(F)F)ccn3)cc2)CO1"
  Ki / µM: 0.0003

Looking up "NC1=N[C@@H](CCc2ccc(Nc3ncc(Cl)cn3)cc2)CO1" , I found its Ki recorded as 0.0012

Looking up "NC1=N[C@@H](CCc2ccc(Nc3cc(C(F)(F)F)ncn3)cc2)CO1" , I found its Ki recorded as 0.0013

Looking up "NC1=N[C@@H](CCc2ccc(Nc3cncc(Cl)n3)cc2)CO1" , I found its Ki recorded as 0.0182

----------
# TARGET: mouse TAAR1 (Mus musculus (Mouse))
# Sequence (Q923Y8 whole entry): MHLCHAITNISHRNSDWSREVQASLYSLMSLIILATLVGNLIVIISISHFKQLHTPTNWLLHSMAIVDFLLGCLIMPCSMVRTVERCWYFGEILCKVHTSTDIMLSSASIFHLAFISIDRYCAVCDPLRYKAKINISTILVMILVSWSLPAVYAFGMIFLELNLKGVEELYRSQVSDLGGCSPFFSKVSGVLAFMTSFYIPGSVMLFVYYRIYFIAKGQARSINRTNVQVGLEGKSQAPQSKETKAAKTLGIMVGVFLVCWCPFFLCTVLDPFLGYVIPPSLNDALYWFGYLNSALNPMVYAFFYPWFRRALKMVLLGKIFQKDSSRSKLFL
# EXPERIMENT SUMMARY: Radioligand binding assay on mouse TAAR1
# CONDITIONS USED: mouse TAAR1, membranes of stably transfected HEK-293 cells; first value of cell mouse/rat
List of Ki values.
# value in µM; strip the unit string

Looking up Cc1cccc(Nc2ccc(CC[C@H]3COC(N)=N3)cc2)n1 [Example 25] , I found its Ki recorded as 0.0035

Looking up NC1=N[C@@H](CCc2ccc(Nc3cc(C(F)(F)F)cc(Cl)n3)cc2)CO1 [Example 42] , I found its Ki recorded as 0.0008

Looking up NC1=N[C@@H](CCc2ccc(Nc3nccc(C(F)(F)F)n3)cc2)CO1 [Example 40] , I found its Ki recorded as 0.0024

----------
# TARGET: rat TAAR1 (Rattus norvegicus (Rat), UniProt Q923Y9)
# Sequence (Q923Y9 whole entry): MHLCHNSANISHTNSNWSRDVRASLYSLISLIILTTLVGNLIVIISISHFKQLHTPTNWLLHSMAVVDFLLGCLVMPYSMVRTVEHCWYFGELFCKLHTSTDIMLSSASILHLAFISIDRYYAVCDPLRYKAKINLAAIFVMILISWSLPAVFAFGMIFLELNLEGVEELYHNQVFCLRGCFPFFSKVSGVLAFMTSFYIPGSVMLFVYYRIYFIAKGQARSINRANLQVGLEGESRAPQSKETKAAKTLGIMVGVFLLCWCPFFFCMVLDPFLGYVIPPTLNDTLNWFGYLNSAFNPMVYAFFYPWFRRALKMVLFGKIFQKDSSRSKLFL
# EXPERIMENT SUMMARY: Radioligand binding assay on rat TAAR1
# CONDITIONS USED: rat TAAR1, membranes of stably transfected HEK-293 cells; second value of cell mouse/rat
# Experimental: Construction of TAAR Expression Plasmids and Stably Transfected Cell Lines For the construction of expression plasmids the coding sequences of human, rat and mouse TAAR 1 were amplified from genomic DNA essentially as described by Lindemann et al.. The Expand High Fidelity PCR System (Roche Diagnostics) was used with 1.5 mM Mg^2+ and purified PCR products were cloned into pCR2.1-TOPO cloning vector (Invitrogen) following the instructions of the manufacturer. […]
PARAMETER: Ki (µM)
# value in µM; strip the unit string

- COMPOUND: "NC1=N[C@@H](CCc2ccc(Nc3ncc(C4CC4)cn3)cc2)CO1"
  VALUE UNIT: "µM"
  Ki: 0.0004
- COMPOUND: "NC1=N[C@@H](CCc2ccc(Nc3ccc(Cl)cc3)cc2)CO1"
  VALUE UNIT: "µM"
  Ki: 0.0001
- COMPOUND: "NC1=N[C@@H](CCc2ccc(Nc3nccnc3Cl)cc2)CO1"
  VALUE UNIT: "µM"
  Ki: 0.0031
- COMPOUND: "COc1cnc(Nc2ccc(CC[C@H]3COC(N)=N3)cc2)nc1"
  VALUE UNIT: "µM"
  Ki: 0.0007

Looking up "Cc1cc(CC[C@H]2COC(N)=N2)ccc1Nc1ncc(Cl)cn1" , I found its Ki recorded as 0.0007

Looking up NC1=N[C@@H](CCc2ccc(NC(c3ccc(C(F)(F)F)cc3)C(F)(F)F)cc2)CO1 (some centres unmarked) , I found its Ki recorded as 0.0084

Looking up "COc1nc(Cl)cc(Nc2ccc(CC[C@H]3COC(N)=N3)cc2)n1" , I found its Ki recorded as 0.0011

Looking up "Cc1ccc(Nc2ccc(CC[C@H]3COC(N)=N3)cc2)nc1" , I found its Ki recorded as 0.0035

----------
# TARGET: UniProtKB Q923Y9
# EXPERIMENT SUMMARY: Radioligand binding assay on rat TAAR1
# CONDITIONS USED: rat TAAR1, membranes of stably transfected HEK-293 cells; second value of cell mouse/rat
I'd appreciate it if you marked entries Met when Ki is lower than 0.0006 µM and Not met when it is not.

- COMPOUND: "Cc1cc(Nc2ccc(CC[C@H]3COC(N)=N3)cc2)ccc1OC(F)(F)F [Example 10]"
  CLASSIFICATION: "Met"
- COMPOUND: "NC1=N[C@@H](CCc2ccc(Nc3ccc(Cl)cn3)cc2)CO1 [Example 15]"
  CLASSIFICATION: "Met"
- COMPOUND: "COc1ccnc(Nc2ccc(CC[C@H]3COC(N)=N3)cc2)n1 [Example 36]"
  CLASSIFICATION: "Met"
- COMPOUND: "NC1=N[C@@H](CCc2ccc(Nc3cc(C(F)(F)F)ccn3)cc2)CO1 [Example 23]"
  CLASSIFICATION: "Met"
- COMPOUND: "CSc1ccnc(Nc2ccc(CC[C@H]3COC(N)=N3)cc2)n1 [Example 45]"
  CLASSIFICATION: "Not met"
- COMPOUND: "NC1=N[C@@H](CCc2ccc(Nc3ncc(Cl)cn3)cc2)CO1 [Example 18]"
  CLASSIFICATION: "Met"

IN: Hi there! Is Ki for NC1=N[C@@H](CCc2ccc(Nc3cncc(Cl)n3)cc2)CO1 [Example 27] below 0.0006 µM, do you know?
OUT: Not met

IN: Hi there! Is Ki for NC1=N[C@@H](CCc2ccc(Nc3ncc(F)cn3)cc2)CO1 [Example 20] below 0.0006 µM, do you know?
OUT: Not met

IN: Hi there! Is Ki for NC1=N[C@@H](CCc2ccc(Nc3ccc(C(F)(F)F)cn3)cc2)CO1 [Example 11] below 0.0006 µM, do you know?
OUT: Met

IN: Hi there! Is Ki for NC1=N[C@@H](CCc2ccc(NC(c3ccc(Cl)cc3)C(F)(F)F)cc2)CO1 (stereo partly shown) [Example 63] below 0.0006 µM, do you know?
OUT: Not met
